- ASSAYED_TARGET: human Adenovirus capsid
- PROCEDURE_SUMMARY: SPR, peptide on adenovirus capsid (FIGS. 13A-13B)
Classify as follows. Reported list of priority (rank by SPR binding, high binders listed first) greater than or equal to 3 rank: yes (1). Reported list of priority (rank by SPR binding, high binders listed first) below: no (0).

These recorded examples may help you get a feel for the data.
INSERT INTO assay_data (binder, label_class) VALUES
  ('KKKKKKKKKKLIFLWLLWPVTLACFVLAAV [VME1_KLIFL SARS-CoV2 peptide with 9K poly-lysine tail]', 'yes (1)'),
  ('KKKKKKAQFAPSASAFFGMSRIGMEV [NCAP_AQFAP SARS-CoV2 peptide with 6K poly-lysine tail]', 'yes (1)'),
  ('KKKKKKLPKEITVATSRTLSYYKLGA [VME1_LPKEI SARS-CoV2 peptide with 6K poly-lysine tail]', 'yes (1)'),
  ('KKKKKKKKKGLVAEWFLAYILFTRFFYVL [R1AB_GLVAE SARS-CoV2 peptide with 9K poly-lysine tail]', 'no (0)'),
  ('KKKKKKALALLLLDRLNQLESKMSGK [NCAP_ALALL SARS-CoV2 peptide with 6K poly-lysine tail]', 'yes (1)');

Next up:
Q) Hello, I need to know if KKKKKKKKKGLEAPFLYLYALVYFLQSINFV [AP3A_GLEAP SARS-CoV2 peptide with 9K poly-lysine tail] has measured list of priority (rank by SPR binding, high binders listed first) not below 3 rank. Thanks!
A) no (0)
